Quick reference for inhibition among some compounds
- measurementTarget: Acetylcholinesterase (Homo sapiens, UniProt P22303)
- Sequence (P22303 whole entry): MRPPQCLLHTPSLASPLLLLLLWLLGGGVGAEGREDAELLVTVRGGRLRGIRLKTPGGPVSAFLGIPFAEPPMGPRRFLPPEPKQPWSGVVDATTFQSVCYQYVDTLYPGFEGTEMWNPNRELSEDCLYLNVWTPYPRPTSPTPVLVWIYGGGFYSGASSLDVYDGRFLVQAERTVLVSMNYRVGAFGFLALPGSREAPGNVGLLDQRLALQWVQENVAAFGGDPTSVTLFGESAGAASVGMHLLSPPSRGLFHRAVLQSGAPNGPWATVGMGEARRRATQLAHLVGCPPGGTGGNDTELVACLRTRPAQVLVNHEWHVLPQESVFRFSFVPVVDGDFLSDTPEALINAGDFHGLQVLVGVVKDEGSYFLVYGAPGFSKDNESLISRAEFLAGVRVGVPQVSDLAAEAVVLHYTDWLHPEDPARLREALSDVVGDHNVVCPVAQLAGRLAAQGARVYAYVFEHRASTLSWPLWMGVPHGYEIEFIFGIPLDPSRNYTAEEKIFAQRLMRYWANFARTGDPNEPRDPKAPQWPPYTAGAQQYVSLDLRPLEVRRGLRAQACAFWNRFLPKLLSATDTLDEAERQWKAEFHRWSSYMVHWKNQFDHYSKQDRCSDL
- protocolDescription: Inhibition of acetylcholinesterase (unknown origin) at 0.01 to 100 uM using acetylthiocholine as substrate preincubated for 30 mins followed by substrate addition and measured after 2 mins by Ellman's method relative to control
endpoint: inhibition

In [3]: df
Out[3]:
                             compoundsmiles  readoutvalue
0  COc1ccc([C@H]2O[C@@H](O)[C@H]3[C@@H]2C(=O)O[C@@H]3c2ccc(OC)c(OC)c2)cc1OC         > 70%
1  COc1ccc([C@H]2OC[C@H]3[C@@H]2C(=O)O[C@@H]3c2ccc3c(c2)OCO3)cc1OC         > 70%
2      COc1ccc([C@H](O)[C@H](N)C(=O)O)cc1OC         > 70%
3  COc1cc([C@H]2OC[C@H]3[C@@H]2CO[C@@H]3c2cc(OC)c3c(c2)OCO3)cc(OC)c1OC           81%
4  COc1ccc([C@H]2O[C@@H](O)[C@H]3[C@@H]2C(=O)O[C@@H]3c2cc(OC)c3c(c2)OCO3)cc1OC         > 70%
5  COc1ccc([C@H]2OC[C@H]3[C@@H]2CO[C@@H]3c2cc(OC)c(OC)c(OC)c2)cc1OC         > 90%
6  COc1cc([C@H]2OC[C@H]3[C@@H]2CO[C@@H]3c2cc(OC)c(OC)c(OC)c2)cc(OC)c1OC           65%
7  COc1ccc([C@H]2OC(=O)[C@H]3[C@@H]2C(=O)O[C@@H]3c2ccc3c(c2)OCO3)cc1OC         > 90%

###

- measurementTarget: Acetylcholinesterase (Homo sapiens)
pIC50: −log10 of the molar value.
pIC50 overview
endpoint: pIC50

>>> print(df.to_string())
                             compoundsmiles  readoutvalue
0      COc1ccc([C@H](O)[C@H](N)C(=O)O)cc1OC          9.00
1  COc1ccc([C@H]2OC[C@H]3[C@@H]2CO[C@@H]3c2cc(OC)c(OC)c(OC)c2)cc1OC          6.04
2  COc1ccc([C@H]2OC(=O)[C@H]3[C@@H]2C(=O)O[C@@H]3c2ccc3c(c2)OCO3)cc1OC          6.80
3  COc1cc([C@H]2OC[C@H]3[C@@H]2CO[C@@H]3c2cc(OC)c(OC)c(OC)c2)cc(OC)c1OC          6.21
4  COc1ccc([C@H]2O[C@@H](O)[C@H]3[C@@H]2C(=O)O[C@@H]3c2ccc(OC)c(OC)c2)cc1OC          7.55
5  COc1ccc([C@H]2OC[C@H]3[C@@H]2C(=O)O[C@@H]3c2ccc3c(c2)OCO3)cc1OC          5.65
6  COc1ccc([C@H]2O[C@@H](O)[C@H]3[C@@H]2C(=O)O[C@@H]3c2cc(OC)c3c(c2)OCO3)cc1OC          8.52
7  COc1cc([C@H]2OC[C@H]3[C@@H]2CO[C@@H]3c2cc(OC)c3c(c2)OCO3)cc(OC)c1OC          6.34
